Please go through the items and note down their MCH-2R Agonist Activation %.
TARGET_DESC: human MCH-2R (Homo sapiens)
Sequence (Q969V1 whole entry): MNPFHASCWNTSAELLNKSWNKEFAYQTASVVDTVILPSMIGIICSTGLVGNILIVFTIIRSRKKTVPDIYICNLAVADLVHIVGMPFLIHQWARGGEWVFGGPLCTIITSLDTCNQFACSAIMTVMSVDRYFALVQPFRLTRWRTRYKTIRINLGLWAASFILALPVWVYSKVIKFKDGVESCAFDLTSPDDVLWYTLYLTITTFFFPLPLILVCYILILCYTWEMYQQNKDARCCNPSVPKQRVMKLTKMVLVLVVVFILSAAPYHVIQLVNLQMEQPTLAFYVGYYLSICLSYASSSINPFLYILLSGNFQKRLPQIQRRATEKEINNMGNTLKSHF
ASSAY_INFO: Aequorin bioluminescence functional assay, MCH-2R agonist activity
ASSAY_SETUP: 293-AEQ17 cells expressing human MCH-2R
Where a SMILES comes first, the peptide text is derived from it. Bridges are numbered along the chain shown (N, C = ends). [ ]: non-standard residue; d: D form. The star is where a group is joined. Pentanoyl(5-guanidino) = NC(N)=NCCCCC(=O)*; Ava = NCCCCC(=O)O
Reply with just the number (in %).

**Query** Find the measured MCH-2R Agonist Activation % of CSCC[C@@H]1NC(=O)[C@@H](NC(=O)CCCCNC(=N)N)CSSC[C@@H](C(N)=O)NC(=O)CCCCNC(=O)CCCCNC(=O)[C@H](Cc2ccc(O)cc2)NC(=O)[C@H](C(C)C)NC(=O)[C@H](CCCNC(=N)N)NC(=O)CCCCNC(=O)CCCCNC1=O [SEQ. ID. NO. 32] ({Pentanoyl(5-guanidino)}-CM[Ava][Ava]RVY[Ava][Ava]C-NH2; disulfide 1-10; C-terminus assumed) and report it.
**Result** 91

**Query** Find the measured MCH-2R Agonist Activation % of CSCC[C@@H]1NC(=O)[C@@H](NC(=O)[C@@H](CCCNC(=N)N)NC(C)=O)CSSC[C@@H](C(N)=O)NC(=O)[C@@H]2CCCN2C(=O)[C@H](CCCNC(=N)N)NC(=O)[C@H](Cc2ccc(O)cc2)NC(=O)[C@H](C(C)C)NC(=O)[C@H](CCCNC(=N)N)NC(=O)CCCCNC(=O)CCCCNC1=O [SEQ. ID. NO. 4] (Ac-[dR]CM[Ava][Ava]RVYRPC-NH2; disulfide 2-11 (inferred); C-terminus assumed) and report it.
**Result** 7

* * *

TARGET_DESC: UniProtKB Q969V1
ASSAY_INFO: Aequorin bioluminescence functional assay, MCH-2R agonist activity
ASSAY_SETUP: 293-AEQ17 cells expressing human MCH-2R
Where a SMILES comes first, the peptide text is derived from it. Bridges are numbered along the chain shown (N, C = ends). [ ]: non-standard residue; d: D form. The star is where a group is joined. Pentanoyl(5-guanidino) = NC(N)=NCCCCC(=O)*; Ava = NCCCCC(=O)O
Please go through the items and note down their MCH-2R Agonist Activation %.
Reply with just the number (in %).

**Query** Provide UniProtKB Q969V1 MCH-2R Agonist Activation % reading for CC(C)C[C@@H]1NC(=O)[C@H](C)NC(=O)[C@@H](NC(=O)CCCCNC(=N)N)CSSC[C@@H](C(N)=O)NC(=O)CCCCNC(=O)CCCCNC(=O)[C@H](Cc2ccc(O)cc2)NC(=O)[C@H](C(C)C)NC(=O)[C@H](CCCNC(=N)N)NC(=O)CNC1=O [SEQ. ID. NO. 19] ({Pentanoyl(5-guanidino)}-CALGRVY[Ava][Ava]C-NH2; disulfide 1-10 (inferred); C-terminus assumed) .
**Result** 45

**Query** Provide UniProtKB Q969V1 MCH-2R Agonist Activation % reading for CSCC[C@@H]1NC(=O)[C@@H](NC(=O)CCCCNC(=N)N)CSSC[C@@H](C(=O)O)NC(=O)CCCCNC(=O)CCCCNC(=O)[C@H](Cc2ccc(O)cc2)NC(=O)[C@H](C(C)C)NC(=O)[C@H](CCCNC(=N)N)NC(=O)CNC(=O)[C@H](CC(C)C)NC1=O [SEQ. ID. NO. 18] .
**Result** 38
